TARGET_OR_SYSTEM: Jak2 tyrosine kinase (Homo sapiens (Human), UniProt O60674)
Sequence (O60674 whole entry): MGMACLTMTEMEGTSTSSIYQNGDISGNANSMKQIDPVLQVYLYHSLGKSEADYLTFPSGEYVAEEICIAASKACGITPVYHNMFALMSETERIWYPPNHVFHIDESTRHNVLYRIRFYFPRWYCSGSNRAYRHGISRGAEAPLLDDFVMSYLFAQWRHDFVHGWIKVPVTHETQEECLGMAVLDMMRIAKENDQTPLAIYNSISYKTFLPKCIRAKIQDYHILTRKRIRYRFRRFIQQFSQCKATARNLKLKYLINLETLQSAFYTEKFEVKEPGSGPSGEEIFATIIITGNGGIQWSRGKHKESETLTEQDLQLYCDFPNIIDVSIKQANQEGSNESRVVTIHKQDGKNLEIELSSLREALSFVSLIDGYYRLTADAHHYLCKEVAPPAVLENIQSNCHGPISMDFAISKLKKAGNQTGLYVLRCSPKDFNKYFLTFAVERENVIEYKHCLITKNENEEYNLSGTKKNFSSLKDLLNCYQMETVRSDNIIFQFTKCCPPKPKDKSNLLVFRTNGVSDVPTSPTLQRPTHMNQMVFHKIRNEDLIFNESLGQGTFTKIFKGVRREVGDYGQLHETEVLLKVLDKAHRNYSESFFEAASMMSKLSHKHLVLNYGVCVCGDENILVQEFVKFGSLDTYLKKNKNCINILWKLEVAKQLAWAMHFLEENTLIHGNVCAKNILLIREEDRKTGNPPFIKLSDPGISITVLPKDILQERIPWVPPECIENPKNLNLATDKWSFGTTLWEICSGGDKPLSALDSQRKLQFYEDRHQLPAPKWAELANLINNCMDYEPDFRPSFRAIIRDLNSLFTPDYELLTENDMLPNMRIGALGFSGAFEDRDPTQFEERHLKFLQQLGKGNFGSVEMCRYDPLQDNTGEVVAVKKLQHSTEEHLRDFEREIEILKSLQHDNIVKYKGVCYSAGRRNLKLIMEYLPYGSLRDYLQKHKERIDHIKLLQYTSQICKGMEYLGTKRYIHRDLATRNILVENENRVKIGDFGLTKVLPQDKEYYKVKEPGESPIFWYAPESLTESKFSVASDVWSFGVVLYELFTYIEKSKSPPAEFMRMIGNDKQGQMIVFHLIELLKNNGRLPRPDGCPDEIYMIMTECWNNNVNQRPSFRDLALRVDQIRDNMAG
ASSAY_SUMMARY: Jak2 Tyrosine Kinase Assay
Type: biochemical
PROTOCOL_CONDITIONS: selectivity of Btk over Jak2
MEASURED_ATTRIBUTE: Ratio of Jak2/Btk IC50 values

Reference set, count: 3
| COMPOUND | TARGET_OR_SYSTEM | Ratio of Jak2/Btk IC50 values |
| --- | --- | --- |
| Cc1c(-c2c(Cl)cc(C(N)=O)c3[nH]c4cc(C(C)(C)O)ccc4c23)cccc1-n1c(=O)[nH]c2c(F)cc(F)cc2c1=O (single isomer, unassigned) [Example 48] | Jak2 tyrosine kinase (Homo sapiens (Human), UniProt O60674) | 3300 |
| Cc1c(-c2c(F)cc(C(N)=O)c3[nH]c4cc(C(C)(C)O)ccc4c23)cccc1-n1c(=O)[nH]c2c(Cl)cccc2c1=O (single isomer, unassigned) [Example 54] | Jak2 tyrosine kinase (Homo sapiens (Human), UniProt O60674) | 3400 |
| Cc1c(-c2c(C#N)cc(C(N)=O)c3[nH]c4cc(C(C)(C)O)ccc4c23)cccc1-n1c(=O)cc2c(Cl)cccn2c1=O (single isomer, unassigned) [Example 72] | Jak2 tyrosine kinase (Homo sapiens (Human), UniProt O60674) | 1600 |

1: Cc1c(-c2c(F)cc(C(N)=O)c3[nH]c4cc(C(C)(C)O)ccc4c23)cccc1-n1c(=O)[nH]c2c(F)cc(F)cc2c1=O (single isomer, unassigned) [Example 50]
2: Cc1c(-c2c(F)cc(C(N)=O)c3[nH]c4cc(C(C)(C)O)ccc4c23)cccc1-n1c(=O)[nH]c2c(F)cc(F)cc2c1=O (single isomer, unassigned) [Example 73]
Inquiry: Of the two listed items, which has the higher Ratio of Jak2/Btk IC50 values? First: 1 Second: 2 Identify your pick by its label.
Reply text: 1
(1: 3800, 2: 2200)

---

System: BCR-stimulated CD69 expression on B cells in human whole blood
ASSAY_SUMMARY: Whole Blood Assay of BCR-Stimulated CD69 Expression on B Cells
Assay type: cell-based
MEASURED_ATTRIBUTE: IC50 (nM)
Reply numerically in nM, unit not repeated.

Inquiry: Need IC50 of Cc1c(-c2c(F)cc(C(N)=O)c3[nH]c4c(c23)CC[C@H](C(C)(C)O)C4)cccc1-n1c(=O)[nH]c2c(F)cccc2c1=O (single isomer, unassigned) [Example 59] , thanks.
Reply text: 260
